- METHOD SUMMARY: qHTS assay to identify small molecule agonists of the estrogen related receptor (ERR) signaling pathway from Tox21 library (AID 1224849); note: % is set by controls: 0 for no effect and ±100 for the full control effect; nearly all actives have a fitted effect of over 15% in size
- PARTICULARS: ERR reporter cell line, ONE-Glo luciferase, 18 h; at 92.4 µM (top of the series) unless noted
Reported activity change, positive = activation values are given for each entry in this list.
MEASURE NAME: activity change, positive = activation (%)

item_smiles=O=C(O)COc1ccc(Cl)cc1 measure_name="activity change, positive = activation" units_label=% result_number=1.55
item_smiles=CCBr measure_name="activity change, positive = activation" units_label=% result_number=6.77
item_smiles=OC(c1ccc(Cl)cc1)(c1ccc(Cl)cc1)c1cccnc1 measure_name="activity change, positive = activation" units_label=% result_number=-55.6
item_smiles=COP(=S)(OC)Oc1ccc([N+](=O)[O-])cc1Cl measure_name="activity change, positive = activation" units_label=% result_number=-29.5
item_smiles=CCCCCCCCCCOC(=O)c1ccccc1C(=O)OCCCCCCCCCC measure_name="activity change, positive = activation" units_label=% result_number=1.79
item_smiles=N#C/C(N)=C(/N)C#N measure_name="activity change, positive = activation" units_label=% result_number=0.178
item_smiles=O=C(O)C(F)(F)C(F)(F)C(F)(F)C(F)(F)C(F)(F)C(F)(F)C(F)(F)C(F)(F)C(F)(F)F measure_name="activity change, positive = activation" units_label=% result_number=3.44

---

- METHOD SUMMARY: qHTS RealTime-Glo MT Cell Viability Assay in HepG2 cells - 32 hour (AID 1224877); note: nearly all actives have a fitted effect of over 55% in size
- PARTICULARS: RealTime-Glo luminescence; series mostly up to 76.8 µM
- From the text: U.S. Tox21 Program National Center for Advancing Translational Sciences [NCATS] NIH Chemical Genomics Center [NCGC] U.S. Environmental Protection Agency [EPA] National Institutes of Environmental Health Sciences [NIEHS] National Toxicology Program [NTP] U.S. Food and Drug Administration [FDA] Tox21 Assay Overview: Measure of cell viability is critical in the cell-base assay. Analysis of cell viability is necessary for the characterization of cell responses to cytotoxic drugs and environmental stress. […]
Results filed as inconclusive are left out. Calls of active or inactive are those of the source. The call rests on the fitted dose curve; in most records, active means well fitted cell-killing curve with a large enough effect in the repeat runs; inconclusive means weak or mixed curves; inactive means flat fitted curve, though single readings scatter.
Labels: active, inactive

compound=CCOc1ccc(C(C)(C)COCc2cccc(Oc3ccccc3)c2)cc1 label_class=inactive
compound=CCCCc1c(C)nc(NCC)nc1OS(=O)(=O)N(C)C label_class=inactive
compound="CC1(C)CCC(Cc2ccc(Cl)cc2)C1(O)Cn1cncn1 (stereo not given)" label_class=inactive
compound=C#CCOC(C(=O)OCCN(C)C)(c1ccccc1)c1ccccc1 label_class=inactive
compound=COP(=O)(OC)O/C(=C/Cl)c1cc(Cl)c(Cl)cc1Cl label_class=inactive
compound=CN1C[C@H](CNC(=O)OCc2ccccc2)C[C@@H]2c3cccc4c3c(cn4C)C[C@H]21 label_class=active
compound=ClCc1cccc(Cl)c1 label_class=inactive
compound=Brc1ccccc1 label_class=inactive
compound=CC[C@H]1C[C@H]2[C@@H]3CCC4=CC(=O)CC[C@@H]4[C@H]3CC[C@]2(C)[C@H]1O label_class=inactive
compound=CCC(Br)(CC)C(=O)NC(N)=O label_class=inactive
compound=C=CC(=O)NCNC(=O)C=C label_class=inactive
compound=CC(C)(CCl)C(=O)Cl label_class=inactive
compound=C[N+](C)(C)CCCl label_class=inactive
compound=COCCOCCO label_class=inactive
compound=COc1nn(CSP(=S)(OC)OC)c(=O)s1 label_class=inactive
compound=O=C1c2ccccc2C(=O)C1C(=O)C(c1ccccc1)c1ccccc1 label_class=inactive
compound="CCCCC(CC)COP(=O)(Oc1ccccc1)Oc1ccccc1 (stereo not given)" label_class=inactive
compound=ClCCCCBr label_class=inactive
compound=Cl/C=C\C[N+]12CN3CN(CN(C3)C1)C2 label_class=inactive
compound=Cc1cc(=O)[nH]o1 label_class=inactive
compound=CCCCCCCCCC(=O)O[C@H]1CC[C@H]2[C@@H]3CCC4=CC(=O)CC[C@@H]4[C@H]3CC[C@]12C label_class=inactive
compound="CCOC(=O)C(Cl)C(C)=O (stereo not given)" label_class=inactive
compound=CCCN(CCC)c1c([N+](=O)[O-])cc(S(C)(=O)=O)cc1[N+](=O)[O-] label_class=inactive
compound=O=[N+]([O-])c1ccc(F)c([N+](=O)[O-])c1 label_class=inactive
compound=Nc1nc(=S)[nH][nH]1 label_class=inactive
compound=CCOP(=S)(OCC)SCn1nnc2ccccc2c1=O label_class=inactive
compound=O=C(O)C(F)(F)C(F)(F)C(F)(F)C(F)(F)C(F)(F)C(F)(F)C(F)(F)C(F)(F)C(F)(F)F label_class=inactive
compound=O=C1NCN(c2ccccc2)C12CCN(CCCOc1ccc(F)cc1)CC2 label_class=inactive
compound=CCOC(=O)[C@]1(c2ccccc2)Oc2ccccc2[C@@H]1N label_class=inactive
compound="COC(=O)C(C)N(C(=O)Cc1ccccc1)c1c(C)cccc1C (stereo not given)" label_class=inactive
compound="C=CC(=O)OCC(C)O (stereo not given)" label_class=inactive
compound=CCCCN=C=O label_class=inactive
compound=Cc1ccccc1C(=O)Nc1cccc(OC(C)C)c1 label_class=inactive
compound="BrCC(Br)C1CCC(Br)C(Br)C1 (stereo not given)" label_class=inactive
compound=COc1c(C(C)(C)C)cc([N+](=O)[O-])c(C)c1[N+](=O)[O-] label_class=inactive
compound=C=COC(C)=O label_class=inactive
compound=ClCc1ccccc1 label_class=inactive
compound=CCCCCC[N+](=O)[O-] label_class=inactive
compound=CCCCN(N=O)C(=N)N[N+](=O)[O-] label_class=inactive
compound=CN(C)c1ccc(N(C)C)cc1 label_class=inactive
compound=N#C/C(N)=C(/N)C#N label_class=inactive
compound=ClC=C(Cl)Cl label_class=inactive
compound=CCOP(=O)(OCC)O/C(=C/Cl)c1ccc(Cl)cc1Cl label_class=inactive
compound="CC(C)(C)C(O)C(Oc1ccc(Cl)cc1)n1cncn1 (stereo not given)" label_class=inactive
compound="COC(=O)C(Br)CBr (stereo not given)" label_class=inactive
compound="CC1C(=O)C[C@]2(C(C)C)C[C@H]12 (stereo not given in full)" label_class=inactive
compound=Cc1ccc(-c2c(Cl)nc(C#N)n2S(=O)(=O)N(C)C)cc1 label_class=inactive
compound="COCC(C)N(C(=O)CCl)c1c(C)csc1C (stereo not given)" label_class=inactive
compound=CCCCOC(=O)c1ccccc1C(=O)OCc1ccccc1 label_class=inactive
compound=Brc1ccc(Oc2ccccc2)cc1 label_class=inactive
compound=CO/N=C(/C(=O)OC)c1ccccc1COc1ccccc1C label_class=inactive
compound="CCC(COC(=O)c1cc(OC)c(OC)c(OC)c1)(c1ccccc1)N(C)C (stereo not given)" label_class=inactive
compound=O=Cc1ccc2c(c1)OCO2 label_class=inactive
compound=C=CC(=O)OCCCCO label_class=inactive
compound="CC1CC(CC2CCC(N)C(C)C2)CCC1N (stereo not given)" label_class=inactive
